Target: human FPR1 (Homo sapiens (Human), UniProt P21462)
Sequence (P21462 whole entry): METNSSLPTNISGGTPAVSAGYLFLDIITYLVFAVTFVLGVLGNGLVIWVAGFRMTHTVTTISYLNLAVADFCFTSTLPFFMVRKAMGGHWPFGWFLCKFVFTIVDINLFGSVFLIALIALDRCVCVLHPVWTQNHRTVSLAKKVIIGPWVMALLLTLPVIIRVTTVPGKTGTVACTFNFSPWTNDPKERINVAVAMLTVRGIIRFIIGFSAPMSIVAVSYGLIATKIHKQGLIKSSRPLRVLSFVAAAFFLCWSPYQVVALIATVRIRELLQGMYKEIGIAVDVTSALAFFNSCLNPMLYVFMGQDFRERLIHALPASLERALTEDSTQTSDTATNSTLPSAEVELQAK
Assay: FPR1 cyclic adenosine monophosphate (cAMP) assay
Conditions: CHO cells overexpressing human FPR1; forskolin 10 µM; inhibition of cAMP production; read-out: hFPR1 cAMP EC50
Procedure: N-formyl peptide receptors (FPRs) are a family of chemo attractant receptors that facilitate leukocyte response during inflammation. FPRs belong to the seven-transmembrane G protein-coupled receptor superfamily and are linked to inhibitory G-proteins (Gi). […] FPR2 and FPR1 Cyclic Adenosine Monophosphate (cAMP) Assays. […] The level of intracellular cAMP was determined using the HTRF HiRange cAMP assay reagent kit (Cisbio) according to manufacturer’s instruction. […]
Reported Endpoint: EC50 (nM)

| Compound | Reported Endpoint | Endpoint Unit | Endpoint Result |
| --- | --- | --- | --- |
| COc1ccc([C@@H]2CN(c3c(C)ccn(CC4CCOCC4)c3=O)C(=O)[C@H]2NC(=O)c2ccc(OC(F)F)cc2)cc1 | EC50 | nM | 3 |

1: COCC(CO)n1cccc(N2C[C@@H](c3ccc(OC)cc3F)[C@H](NC(=O)c3ccc(OC(F)(F)F)cc3)C2=O)c1=O (stereo partly drawn) [Example 705]
2: COc1cc(F)c([C@@H]2CN(c3ncccc3C(F)(F)F)C(=O)[C@H]2NC(=O)c2ccc(OC(F)F)cc2)c(F)c1
3: COc1cc(F)c([C@@H]2CN(c3cccn(CC(F)(F)F)c3=O)C(=O)[C@H]2NC(=O)c2ccc(OC(F)(F)F)cc2)c(F)c1
Please produce an ascending ranking of these compounds based on EC50. Give the labels in the order specified.
1, 3, 2
(1: 3.9 nM, 3: 90 nM, 2: 1300 nM)

a: COc1ccc([C@@H]2CN(c3cccn(CC(OC)C(F)(F)F)c3=O)C(=O)[C@H]2NC(=O)c2ccc(OC(F)F)cc2)cc1 (stereo partly drawn)
b: COCCn1cccc(N2C[C@@H](c3c(F)cc(OC)cc3F)[C@H](NC(=O)c3ccc(C(F)(F)F)cc3)C2=O)c1=O
Kindly identify which of a and b has the larger recorded EC50 value. Answer with the label corresponding to your selection.
b
(b: 210 nM, a: 1 nM)
